Target: T1, αIIbβ3 integrin expressed on K562-αIIbβ3 cells (UniProt P08514 32-1039; P05106 27-788)
T1 construct: whole, on cells; also called cell surface expressed αIIbβ3 integrin; GPIIb-IIIa
Assay: flow cytometry, peptide titrated on K562-αIIbβ3 cells, anti-His detection
Ends that are not written are not given here.
PARAMETER MEASURED: pKd
To interpret pKd, take it as minus log10 of a concentration measured in moles per litre.

BINDER: engineered AgRP peptide b3I (soluble, N-terminal FLAG tag and C-terminal hexahistidine tag) (ends and bridges not checked; cysteine pairing not given here, also called clone b3I; β3-specific peptide b3I) DYKDDDDKGCVRLHESCLGQQVPCCDPAATCYCRGRGDVKLRCYCRHHHHHH
PARAMETER MEASURED: pKd
REPORTED VALUE: 7.15
//
BINDER: engineered AgRP peptide 2bJ (soluble, N-terminal FLAG tag and C-terminal hexahistidine tag) (ends and bridges not checked; cysteine pairing not given here, also called clone 2bJ; αIIbβ3-specific peptide 2bJ) DYKDDDDKGCVRLHESCLGQQVPCCDPAATCYCNKRGDWRSKCYCRHHHHHH
PARAMETER MEASURED: pKd
REPORTED VALUE: 7.23
//
BINDER: engineered AgRP peptide 2bA (soluble, N-terminal FLAG tag and C-terminal hexahistidine tag) (ends and bridges not checked; cysteine pairing not given here, also called clone 2bA; αIIbβ3-specific peptide 2bA) DYKDDDDKGCVRLHESCLGQQVPCCDPAATCYCLKRGDWKGKCYCRHHHHHH
PARAMETER MEASURED: pKd
REPORTED VALUE: 7.06

Form field: reported pKd of engineered AgRP peptide b3A (soluble, N-terminal FLAG tag and C-terminal hexahistidine tag) (ends and bridges not checked; cysteine pairing not given here, also called clone b3A; β3-specific peptide b3A) DYKDDDDKGCVRLHESCLGQQVPCCDPAATCYCVGRGDVRRKCYCRHHHHHH
7.38

Lookup engineered AgRP peptide 2bO (soluble, N-terminal FLAG tag and C-terminal hexahistidine tag) (ends and bridges not checked; cysteine pairing not given here, also called clone 2bO; αIIbβ3-specific peptide 2bO) DYKDDDDKGCVRLHESCLGQQVPCCDPAATCYCKKRGDWKERCYCRHHHHHH
7.06
